# DC50 annotations
Target: UniProt P03372
Test: In-cell western (ICW) ER degradation assay in MCF-7 cells
Format: cell-based
Settings: ER degradation, MCF7, 16 hrs

compound: O=C1CCC(N2Cc3c(ccc4c3OC[C@@H]3CN(CC5CCN(c6ccc([C@@H]7c8ccc(O)cc8OC[C@@H]7c7ccccc7)cc6F)CC5)CCN43)C2=O)C(=O)N1 (single isomer, unassigned)
DC50: 1 to 10 nM

[ask] # query: DC50 of entry O=C1CC[C@@H](N2Cc3cc4c(cc3C2=O)OC[C@H]2CN(CC3COC5(CCN(c6ccc([C@H]7c8ccc(O)cc8OC[C@H]7c7ccccc7)cc6)CC5)C3)CCN42)C(=O)N1 (stereo partly drawn)
[reply] < 1 nM

[ask] Would you mind telling me what DC50 value was observed for O=C1CCC(N2Cc3c(ccc4c3OCC43CCN(CC4CCC5(CC4)CN(c4ccc([C@@H]6c7ccc(O)cc7OC[C@@H]6c6ccccc6)cc4)C5)CC3)C2=O)C(=O)N1 (stereo partly drawn) ?
[reply] < 1 nM

---

Target: ER (Homo sapiens (Human))
Assay: In-cell western (ICW) ER degradation assay in T47D cells
Format: cell-based
Details: maximal ER degradation, 16 hrs
propertyName: Dmax

Please review the following examples before continuing.
compound: O=C1CCC(N2C(=O)c3cc4c(cc3C2=O)CN(CC(=O)N2CCC3(CC2)CCN(c2ccc([C@H]5c6ccc(O)cc6OC[C@H]5c5ccccc5)cc2)CC3)C4)C(=O)N1 (stereo partly shown)
readoutValue: 50 to 75%
//
compound: O=C1CCC(Nc2ccc(C34CCN(CC5COC6(CCN(c7ccc([C@H]8c9ccc(O)cc9OC[C@H]8c8ccccc8)cc7F)CC6)C5)CC3C4(F)F)cc2)C(=O)N1 (stereo partly shown)
readoutValue: 25 to 50%
//
compound: O=C1CCN(c2ccc(N3CCN(CC4CC5(CCN(c6ccc([C@@H]7c8ccc(O)cc8OC[C@@H]7c7ccccc7)cc6)CC5)C4)CC3)cc2)C(=O)N1 (single isomer, unassigned)
readoutValue: < 25%

[ask] Fill blank: measured Dmax of the compound `O=C1CC[C@@H](N2Cc3c(ccc4c3OC[C@@H]3CN(C[C@@H]5COC6(CCN(c7ccc([C@H]8c9ccc(O)cc9OC[C@H]8c8ccccc8)cc7F)CC6)C5)CCN43)C2=O)C(=O)N1` is ____.
[reply] 25 to 50%

[ask] Item O=C1CCC(N2Cc3cc4c(cc3C2=O)CN(C(=O)C2CCN(C3CCN(c5ccc([C@H]6c7ccc(O)cc7OC[C@H]6c6ccccc6)cc5)CC3)CC2)C4)C(=O)N1 (single isomer, unassigned) has what recorded Dmax?
[reply] 50 to 75%

[ask] Need Dmax of COc1cc(N2CCC(CN3CCN4c5ccc6c(c5OC[C@H]4C3)CN(C3CCC(=O)NC3=O)C6=O)CC2)ccc1[C@H]1c2ccc(O)cc2OC[C@H]1c1ccccc1 (stereo partly shown) , thanks.
[reply] < 25%

[ask] What does the record list as Dmax for O=C1CCC(NC(=O)c2ccc(N3CCC(CN4CCN(c5ccc([C@H]6c7ccc(O)cc7OC[C@H]6c6ccccc6)cc5)CC4)CC3)cn2)C(=O)N1 (single isomer, unassigned) ?
[reply] 50 to 75%

[ask] # lookup: Dmax of COc1cc(C(=O)NC2CCC(=O)NC2=O)ncc1N1CCN(CC2CCC3(CC2)CN(c2ccc([C@H]4c5ccc(O)cc5OC[C@H]4c4ccccc4)cc2)C3)CC1 (mixture of isomers)
[reply] ≥ 75%

[ask] May I ask what Dmax has been recorded for COc1cc(C(=O)N[C@@H]2CCC(=O)NC2=O)ncc1N1CCN(CC2CCC3(CC2)CN(c2ccc([C@H]4c5ccc(O)cc5OC[C@H]4c4ccccc4)cc2)C3)CC1 (single isomer, unassigned) ?
[reply] < 25%

[ask] Tell me the measured Dmax of COc1cc(N2CCC(CN3CCC4(CC3)COc3cc5c(cc34)CN(C3CCC(=O)NC3=O)C5=O)CC2)ccc1[C@H]1c2ccc(O)cc2OC[C@H]1c1ccccc1 (stereo partly shown) , please.
[reply] 50 to 75%

---

Molecular target: ER (Homo sapiens (Human), UniProt P03372)
Sequence (P03372 whole entry): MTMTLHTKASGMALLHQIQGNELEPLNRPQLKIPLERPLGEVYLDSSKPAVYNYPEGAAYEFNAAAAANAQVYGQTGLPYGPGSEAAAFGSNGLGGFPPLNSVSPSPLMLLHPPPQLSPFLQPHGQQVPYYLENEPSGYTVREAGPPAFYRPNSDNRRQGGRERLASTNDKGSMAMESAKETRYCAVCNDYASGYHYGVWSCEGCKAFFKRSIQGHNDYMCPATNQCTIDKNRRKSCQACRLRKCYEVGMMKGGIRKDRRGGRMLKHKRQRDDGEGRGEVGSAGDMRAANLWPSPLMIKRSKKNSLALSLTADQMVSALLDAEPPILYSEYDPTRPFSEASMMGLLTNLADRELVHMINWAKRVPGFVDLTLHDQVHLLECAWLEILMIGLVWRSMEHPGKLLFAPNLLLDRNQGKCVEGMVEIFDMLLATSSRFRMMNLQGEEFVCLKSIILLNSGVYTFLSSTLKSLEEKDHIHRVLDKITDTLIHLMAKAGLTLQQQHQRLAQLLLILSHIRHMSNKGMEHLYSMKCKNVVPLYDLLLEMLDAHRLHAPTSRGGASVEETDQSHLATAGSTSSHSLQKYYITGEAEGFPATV
Assay: In-cell western (ICW) ER degradation assay in MCF-7 cells
Format: cell-based
Conditions: MCF7, maximal ER degradation, MCF7, 16 hrs
Overview of recorded Dmax for various compounds

Reference set, count: 5
compound: O=C1CCC(NC(=O)c2ccc(N3CCN(CC4CCN(c5ccc([C@H]6c7ccc(O)cc7OC[C@H]6c6ccccc6)cc5F)CC4)CC3)cn2)C(=O)N1 (single isomer, unassigned) [Compound A100]
Dmax: 50 to 75%

compound: O=C1CC[C@@H](N2Cc3c(ccc4c3OC[C@@H]3CN(C[C@@H]5COC6(CCN(c7ccc([C@H]8c9ccc(O)cc9OC[C@H]8c8ccccc8)cc7)CC6)C5)CCN43)C2=O)C(=O)N1 (single isomer, unassigned) [Compound A132]
Dmax: 50 to 75%

compound: O=C1CC[C@@H](N2Cc3cc4c(cc3C2=O)OC[C@H]2CN(CC3COC5(CCN(c6ccc([C@H]7c8ccc(O)cc8OC[C@H]7c7ccccc7)cc6)CC5)C3)CCN42)C(=O)N1 (stereo partly drawn) [Compound A138]
Dmax: ≥ 75%

compound: CC(C(=O)N1Cc2cc3c(cc2C1)C(=O)N(C1CCC(=O)NC1=O)C3=O)N1CCC2(CCN(c3ccc([C@H]4c5ccc(O)cc5OC[C@H]4c4ccccc4)cc3)CC2)CC1 (single isomer, unassigned) [Compound A57]
Dmax: < 25%

compound: COc1cc(N2CCC(CN3CCN4c5ccc6c(c5OC[C@H]4C3)CN(C3CCC(=O)NC3=O)C6=O)CC2)ccc1[C@@H]1c2ccc(O)cc2OC[C@@H]1c1ccccc1 (single isomer, unassigned) [Compound A77]
Dmax: 50 to 75%

[ask] Looking for the measured Dmax of O=C1CC[C@H](N2Cc3cc4c(cc3C2=O)OC[C@@H]2CN(CC3CC5(CCN(c6ccc([C@@H]7c8ccc(O)cc8OC[C@@H]7c7ccccc7)cc6)CC5)C3)CCN42)C(=O)N1 (single isomer, unassigned) [Compound A59] , can you help?
[reply] 50 to 75%

[ask] What does the record list as Dmax for O=C1CCC(N2Cc3cc4c(cc3C2=O)OC[C@@H]2CN(CC3CCN(c5ccc([C@@H]6c7ccc(O)cc7OC[C@@H]6c6ccccc6)cn5)CC3)CCN42)C(=O)N1 (single isomer, unassigned) [Compound A70] ?
[reply] < 25%

[ask] Please look up its Dmax: COc1cc(N2CCC(CN3CCN(c4cnc(C(=O)NC5CCC(=O)NC5=O)cc4OC)CC3)CC2)ccc1[C@H]1c2ccc(O)cc2OC[C@H]1c1ccccc1 (single isomer, unassigned) [Compound A127]
[reply] 50 to 75%

[ask] Reported Dmax, compound O=C1CCN(c2ccc(N3CCC4(CC3)CC(CN3CCN(c5ccc([C@@H]6c7ccc(O)cc7OC[C@@H]6c6ccccc6)cc5)CC3)C4)cc2)C(=O)N1 [Compound A112] : ____
[reply] < 25%

[ask] Name the reported Dmax value associated with the compound O=C1CCC(N2Cc3cc(N4CCN(CC5CC6(CCN(c7ccc([C@H]8c9ccc(O)cc9OC[C@H]8c8ccccc8)cn7)CC6)C5)CC4)ccc3C2=O)C(=O)N1 (stereo partly drawn) [Compound A98]
[reply] ≥ 75%

[ask] Suppose we examine the compound O=C1CCC(Nc2ccc(C3CCN(CC4CC5(CCN(c6ccc([C@@H]7c8ccc(O)cc8OC[C@@H]7c7ccccc7)cc6)CC5)C4)CC3)c(F)c2)C(=O)N1 (single isomer, unassigned) [Compound A75] ; what Dmax value has been reported?
[reply] 25 to 50%

---

Target: CRBN/DDB1 (Homo sapiens (Human), UniProt Q96SW2)
Sequence (Q96SW2 whole entry): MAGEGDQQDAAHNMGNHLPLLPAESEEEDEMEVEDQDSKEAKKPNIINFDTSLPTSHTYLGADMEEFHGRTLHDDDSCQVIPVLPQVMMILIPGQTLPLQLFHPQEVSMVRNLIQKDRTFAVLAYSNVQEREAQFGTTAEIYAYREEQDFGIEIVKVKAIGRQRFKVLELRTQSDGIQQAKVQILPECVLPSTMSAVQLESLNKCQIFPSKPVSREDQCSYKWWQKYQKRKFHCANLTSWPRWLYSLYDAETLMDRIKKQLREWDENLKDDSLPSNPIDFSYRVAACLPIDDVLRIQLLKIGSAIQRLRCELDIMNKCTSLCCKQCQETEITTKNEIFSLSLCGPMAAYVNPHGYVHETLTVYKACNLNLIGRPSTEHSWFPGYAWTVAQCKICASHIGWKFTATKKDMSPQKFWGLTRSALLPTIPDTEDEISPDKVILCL
Sequence (Q16531 whole entry partner): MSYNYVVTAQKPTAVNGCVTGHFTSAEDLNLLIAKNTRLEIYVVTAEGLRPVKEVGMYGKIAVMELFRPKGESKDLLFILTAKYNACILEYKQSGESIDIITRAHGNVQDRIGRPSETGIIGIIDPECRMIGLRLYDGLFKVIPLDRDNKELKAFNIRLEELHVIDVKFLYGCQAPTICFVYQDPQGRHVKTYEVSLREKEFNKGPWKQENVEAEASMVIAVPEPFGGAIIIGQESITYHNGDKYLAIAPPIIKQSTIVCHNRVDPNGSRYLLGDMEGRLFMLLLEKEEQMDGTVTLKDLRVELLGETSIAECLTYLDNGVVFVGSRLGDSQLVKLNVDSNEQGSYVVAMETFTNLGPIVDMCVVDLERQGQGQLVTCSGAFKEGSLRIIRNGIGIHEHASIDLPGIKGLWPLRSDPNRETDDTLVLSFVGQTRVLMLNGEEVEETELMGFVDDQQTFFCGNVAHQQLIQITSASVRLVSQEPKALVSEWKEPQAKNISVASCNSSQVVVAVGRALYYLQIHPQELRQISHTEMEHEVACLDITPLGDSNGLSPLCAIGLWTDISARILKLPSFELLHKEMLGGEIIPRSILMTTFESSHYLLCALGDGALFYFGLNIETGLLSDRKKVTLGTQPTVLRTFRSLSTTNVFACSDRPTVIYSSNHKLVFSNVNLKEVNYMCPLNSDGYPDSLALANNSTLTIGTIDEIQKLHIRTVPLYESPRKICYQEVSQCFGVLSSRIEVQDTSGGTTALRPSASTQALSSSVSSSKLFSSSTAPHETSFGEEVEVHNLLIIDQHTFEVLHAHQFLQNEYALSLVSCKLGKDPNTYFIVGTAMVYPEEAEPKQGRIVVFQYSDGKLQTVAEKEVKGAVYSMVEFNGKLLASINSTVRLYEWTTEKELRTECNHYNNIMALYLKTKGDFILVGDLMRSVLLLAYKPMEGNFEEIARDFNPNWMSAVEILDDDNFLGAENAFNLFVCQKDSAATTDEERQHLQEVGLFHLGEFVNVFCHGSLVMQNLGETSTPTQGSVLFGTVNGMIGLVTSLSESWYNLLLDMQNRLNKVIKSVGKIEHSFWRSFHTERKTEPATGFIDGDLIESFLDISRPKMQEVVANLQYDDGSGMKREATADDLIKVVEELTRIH
Assay: HTRF binding assay to CRBN/DDB1
Settings: read-out: CRBN HTRF IC50
Listing: IC50 of selected compounds

compound: O=C1CCC(N2C(=O)c3cc4c(cc3C2=O)CN(C(=O)C2CCN(C3CCN(c5ccc([C@@H]6c7ccc(O)cc7OC[C@@H]6c6ccccc6)cc5)CC3)CC2)C4)C(=O)N1 (single isomer, unassigned)
propertyName: IC50
readoutValue: 500 to 5000 nM

# evaluate next
[ask] Quick one: IC50 of `O=C1CC[C@@H](N2Cc3cc4c(cc3C2=O)OC[C@H]2CN(CC3CCC5(CC3)CN(c3ccc([C@@H]6c7ccc(O)cc7OC[C@@H]6c6ccccc6)cc3)C5)CCN42)C(=O)N1` ?
[reply] 500 to 5000 nM

---

# DC50 per entry
Biological target: ER (Homo sapiens (Human), UniProt P03372)
Experiment: In-cell western (ICW) ER degradation assay in MCF-7 cells
Type: cell-based
Conditions: ER degradation, MCF7, 16 hrs

The cases that follow already have their DC50 on record.
molecule: O=C1CCC(NC(=O)c2ccc3c(n2)OC[C@H]2CN(CC4CCN(c5ccc([C@H]6c7ccc(O)cc7OC[C@H]6c6ccccc6)cc5F)CC4)CCN32)C(=O)N1 (stereo partly drawn) [Compound A103]
DC50: 1 to 10 nM
--
molecule: COc1cc(N2CCC(CN3CCN(c4ccc(C(=O)NC5CCC(=O)NC5=O)nc4)CC3)CC2)c(F)cc1[C@H]1c2ccc(O)cc2OC[C@H]1c1ccccc1 (stereo partly drawn) [Compound A110]
DC50: < 1 nM

// below: DC50 requested for another molecule
[ask] Please report the recorded DC50 for O=C1CCC(N2C(=O)c3cc4c(cc3C2=O)CN(CC(=O)N2CC3(CCN(c5ccc([C@H]6c7ccc(O)cc7OC[C@H]6c6ccccc6)cc5)CC3)C2)C4)C(=O)N1 (single isomer, unassigned) [Compound A39] .
[reply] > 100 nM
